Known pIC50 of a selection of molecules
Tested System: human β-Secretase (Homo sapiens (Human), UniProt P56817)
Sequence (P56817 22-460): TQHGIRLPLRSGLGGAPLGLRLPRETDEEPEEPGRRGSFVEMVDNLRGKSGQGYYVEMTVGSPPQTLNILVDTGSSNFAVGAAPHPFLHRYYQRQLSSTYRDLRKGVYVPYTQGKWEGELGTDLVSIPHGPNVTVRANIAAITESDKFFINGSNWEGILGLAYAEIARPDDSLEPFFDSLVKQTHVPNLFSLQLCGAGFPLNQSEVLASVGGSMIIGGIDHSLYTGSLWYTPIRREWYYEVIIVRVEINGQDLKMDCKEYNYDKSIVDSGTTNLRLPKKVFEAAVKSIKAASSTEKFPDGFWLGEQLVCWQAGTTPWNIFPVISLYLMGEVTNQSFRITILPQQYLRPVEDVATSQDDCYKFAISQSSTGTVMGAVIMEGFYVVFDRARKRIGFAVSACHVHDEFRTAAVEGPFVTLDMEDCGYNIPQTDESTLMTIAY
Assay Remarks: Diluted TR-FRET assay
Assay type: biochemical
Test Parameters: values marked ^a; 50 times less enzyme, 6.5 h reaction time at r.t. in the dark; read-out: IC50 in TR-FRET assay (IC50 from the diluted FRET assay)
Keep it numeric: pIC50 is minus log10 of the concentration in mol/L.

Example entries begin here.
# Molecule, Endpoint Result
data = [
    ("COC1CCC2(CC1)Oc1ccc(-c3cncc(Cl)c3)cc1C21N=C(C)C(N)=N1 (stereo not shown) [Example 30d]", 8.28),
    ("CC#Cc1cncc(-c2ccc3c(c2)C2(N=C(C)C(N)=N2)C2(CCC(OC)CC2)O3)c1 (stereo not shown) [Example 30c]", 8.85),
    ("COc1cc(C#N)cc(-c2ccc3c(c2)[C@@]2(N=C(C)C(N)=N2)[C@]2(CC[C@H](OC(F)F)CC2)C3)c1 (racemic) [Example 106]", 9.00),
    ("CC#Cc1cc(-c2ccc3c(c2)C2(N=C(C)C(N)=N2)[C@]2(CC[C@H](OC)CC2)C3)ccn1 (stereo partly shown) [Example 20y]", 8.31),
    ("CO[C@H]1CC[C@]2(CC1)Cc1ccc(-c3ccccc3)cc1[C@@]21N=C(C)C(N)=N1 [Example 90]", 7.89),
]

Find the recorded pIC50 belonging to CO[C@H]1CC[C@]2(CC1)Cc1ccc(-c3cncc(F)c3)cc1C21N=C(C)C(N)=N1 (stereo partly shown) [Example 20f] and report it.
8.26

What measured pIC50 goes with CO[C@H]1CC[C@]2(CC1)Cc1ccc(NC(=O)c3ncc(Cl)cc3C)cc1C21N=C(C)C(N)=N1 (stereo partly shown) [Example 20w] ?
7.74
